Test system: HCT-116
protocolText: NCI tumour cell line growth inhibition, 48 h
The source made the active and inactive calls. No stated cut-off is given here; in the data, active = GI50 up to about 1.1 µM and inactive = higher.
Possible outcomes: active, inactive

molecule=CN(N)C(=O)NCCCl assignedclass=inactive
molecule=CC(C)(NO)/C(=N\O)c1ccco1 assignedclass=inactive
molecule=CCOC(=O)C[C@@H](C)[C@]1(C(=O)OC)CCCC1=O assignedclass=inactive
molecule="COc1ccc(CC(=O)N2CCC3(C)CC(=O)CC=C23)cc1OC (centres undefined)" assignedclass=inactive
molecule="O=C1OCCC12CN(Cc1ccccc1)N=N2 (centres undefined)" assignedclass=inactive
molecule="O=C(Nc1cccc(Cl)c1)C(=O)C(C(=O)c1ccc2ccccc2c1)C1OC(=O)c2ccccc21 (centres undefined)" assignedclass=inactive
molecule=C[C@H]1C[C@H]2[C@@H]3C(C)(C)O[C@]4(O)C(=O)[C@]5(O)[C@@H](C)CC[C@H]1[C@]25C(=O)[C@]34C assignedclass=inactive
molecule=CC(=O)NC1=C(NCC(C)C)C(=O)c2ccccc2C1=O assignedclass=inactive
molecule=CN(C)CCNC(=O)c1cccc2nc3ccc4cccnc4c3nc12 assignedclass=active
molecule=C/C(=N\NC(N)=S)c1sc(-n2nc(-c3ccccc3)cc2-c2ccccc2)nc1C assignedclass=inactive
molecule=COC[C@H]1C(=O)NCC(=O)N2N=CCC[C@H]2C(=O)N(O)[C@H](C)C(=O)O[C@@H](C(C)C)[C@H](NC(=O)[C@@](C)(O)[C@]2(O)CC[C@@H](CC(C)C)[C@H](C)O2)C(=O)N2NCCC[C@@H]2C(=O)N1O assignedclass=active
molecule=O=C(O)c1nn(-c2ccc(Cl)cc2)c2c1C(=O)c1ccccc1C2=O assignedclass=inactive
molecule="CN1N=C2c3ccccc3CC[C@H]2C1c1cccc(O)c1 (some centres undefined)" assignedclass=inactive
molecule="CC(C)=CCN1CC(C)C(=O)Nc2cc(Cl)ccc21 (centres undefined)" assignedclass=inactive
molecule="C=[N+](CNC(=O)CNC(=O)C(Cc1ccc([N+](=O)[O-])cc1)NC(=O)OC(C)(C)C)C(=O)CNC(=O)C(Cc1ccc([N+](=O)[O-])cc1)NC(=O)OC(C)(C)C (centres undefined)" assignedclass=inactive
molecule="CC1(C)C2CCC1(C)C(NC(=O)CCN1CCOCC1)C2 (centres undefined)" assignedclass=inactive
molecule="NC(=O)C1CCCN1Cc1ccc2c(c1)OCO2 (centres undefined)" assignedclass=inactive
molecule=Cc1cc(=O)c2cc(/N=C/c3ccc([N+](=O)[O-])o3)ccc2o1 assignedclass=inactive
molecule=O=c1cc(-c2ccccc2)[nH]c2cc(F)cc(F)c12 assignedclass=inactive
molecule=NC1CCCCC1.O=P(O)(O)C1(P(=O)(O)O)CC1 assignedclass=inactive
molecule="CCN(CC)c1ccc(/C=C/C2=NN(c3cccc(S(=O)(=O)O)c3)C3(C2)SCC(=O)N3c2nc3ccccc3s2)cc1 (centres undefined)" assignedclass=inactive
molecule=CCOC(=O)N1[C@@H]2CCC[C@@H]2C(=O)[C@@H]2CCC[C@@H]21 assignedclass=inactive
molecule=Oc1cc(/C=C/c2ccccc2)nc2cc3c(cc12)OCO3 assignedclass=inactive
molecule=Cc1ncc([N+](=O)[O-])n1CCNCCCCn1ccnc1[N+](=O)[O-] assignedclass=inactive
molecule="COC(=O)CC1NC(=O)C1C(C)(OC)OC (centres undefined)" assignedclass=inactive
molecule=O=C(CN1C(=O)CC(c2ccccc2)(c2ccccc2)C1=O)N1CCN(CCO)CC1 assignedclass=inactive
molecule="COC1=C2CC(C)CC(OC)C(OC(=O)CN)[C@H](C)/C=C(\\C)C(OC(N)=O)C(OC)/C=C\\C=C(/C)C(=O)NC(=CC1=O)C2=O (some centres undefined)" assignedclass=active
molecule=Clc1ccc(Cc2nc3cc(CCN4CCN(c5ccccc5)CC4)ccc3[nH]2)cc1 assignedclass=inactive
molecule="CCOC(=O)C(Cl)(NC(=O)c1ccc(F)cc1)C(F)(F)F (centres undefined)" assignedclass=inactive
molecule=O=S(=O)(O)C(F)(F)C(F)(F)C(F)(F)C(F)(F)F assignedclass=inactive
molecule=O=[N+]([O-])c1ccc(CSC2=C(c3ccc(Cl)cc3)S/C(=C3\SC(SCc4ccc([N+](=O)[O-])cc4)=C(c4ccc(Cl)cc4)S3)S2)cc1 assignedclass=inactive
molecule=CN(C)CCC(=O)[C@@]1(O)CC[C@H]2[C@@H]3CC=C4C[C@@H](O)CC[C@]4(C)[C@H]3CC[C@@]21C assignedclass=inactive
molecule="COC(=O)C1Cc2c(n(Cc3ccccc3)c3ccccc23)C(CCC(=O)O)N1C(C)C (centres undefined)" assignedclass=inactive
molecule=CNC(=O)c1cc2nc3ccccc3c(=O)n2c2ccccc12 assignedclass=inactive
molecule="CCOC(OC1=CCCC1)C(C)[Se]c1ccccc1 (centres undefined)" assignedclass=inactive
molecule=CCOC(=O)CNC(=O)OCc1ccccc1 assignedclass=inactive
molecule="CCC(C)C1NC(=O)C(NC(=O)c2c3nc4c(C(=O)NC5C(=O)NC(C(C)CC)C(=O)N6CCCC6C(=O)N(C)CC(=O)N(C)C(C(C)C)C(=O)OC5C)ccc(C)c4oc-3c(C)c(=O)c2O)C(C)OC(=O)C(C(C)C)N(C)C(=O)CN(C)C(=O)C2CCCN2C1=O (centres undefined)" assignedclass=active
molecule=CCOC(=O)C1=C(Nc2ccccc2)SCC1=O assignedclass=inactive
molecule=CC(C)C(/C=C/c1ccc(Cl)cc1)=N\NC(=S)NN assignedclass=inactive

----------
# key: entry, value: GI50
System: MCF7
protocolText: NCI tumour cell line growth inhibition, 48 h
The source made the active and inactive calls. No stated cut-off is given here; in the data, active = GI50 up to about 1.1 µM and inactive = higher.
valueType: GI50

compound=CN(C)CCC(=O)[C@@]1(O)CC[C@H]2[C@@H]3CC=C4C[C@@H](O)CC[C@]4(C)[C@H]3CC[C@@]21C valuetype=GI50 valuemeasured="4.38 µM (inactive)"
compound=C=C1CC[C@H](O)C(C)(C)[C@@H]1CC/C(C)=C/CC/C=C(\C)CC/C=C(\C)CCC=C(C)C valuetype=GI50 valuemeasured="27.6 µM (inactive)"
compound="COc1ccc(C2C3=C(Nc4ncnn42)c2ccccc2OC3c2ccccc2)cc1 (stereo not given)" valuetype=GI50 valuemeasured="13.5 µM (inactive)"
compound=O=P(O)(CCP(=O)(O)c1ccccc1)c1ccccc1 valuetype=GI50 valuemeasured="> 100 µM (inactive)"
compound=COc1cccc(-c2cc(O)c3cc(N)ccc3n2)c1 valuetype=GI50 valuemeasured="3.94 µM (inactive)"

----------
Tested on: Hs-578T
protocolText: NCI tumour cell line growth inhibition, 48 h
Calls of active or inactive are those of the source. Cut-off read from the data, not from the text of the source: active = GI50 up to about 1.1 µM and inactive = higher.
valueType: GI50

compound=CC(=O)Oc1ccc2cc(-c3ccc(OC(C)=O)c(OC(C)=O)c3)c(=O)oc2c1 experimentaltarget=Hs-578T valuetype=GI50 valuemeasured="54.2 µM (inactive)"
compound=C[n+]1c(-c2ccc(/C=N/NC(=O)C(=O)N/N=C/c3ccc(-c4cn5ccccc5[n+]4C)cc3)cc2)cn2ccccc21 experimentaltarget=Hs-578T valuetype=GI50 valuemeasured="> 100 µM (inactive)"
compound="O=C1NC(Cc2c[nH]c3ccccc23)C(=O)N2C(C3CCCCC3)c3[nH]c4ccccc4c3C[C@@H]12 (some centres undefined)" experimentaltarget=Hs-578T valuetype=GI50 valuemeasured="2.18 µM (inactive)"
compound=COc1cc(/C=C2\C[C@H]3[C@@H]4CC=C5C[C@@H](N6CCCC6)CC[C@]5(C)[C@H]4CC[C@]3(C)[C@H]2OC(C)=O)cc(OC)c1OC experimentaltarget=Hs-578T valuetype=GI50 valuemeasured="17.8 µM (inactive)"
compound=O=C(O)CSSCC(=O)O experimentaltarget=Hs-578T valuetype=GI50 valuemeasured="> 100 µM (inactive)"
compound=CC1(C)C(CBr)=[N+]([O-])C(C)(C)N1O experimentaltarget=Hs-578T valuetype=GI50 valuemeasured="> 10 µM (inactive)"
compound=CC(C)NC(=O)OCc1c(COC(=O)NC(C)C)c(-c2ccc[n+](COC(=O)C(C)(C)C)c2)n2c1CCC2 experimentaltarget=Hs-578T valuetype=GI50 valuemeasured="> 67.5 µM (inactive)"
compound="COc1ccc(C2C3=C(Nc4ncnn42)c2ccccc2OC3c2ccccc2)cc1 (centres undefined)" experimentaltarget=Hs-578T valuetype=GI50 valuemeasured="19.1 µM (inactive)"
compound=CCc1nc(N)nc(N)c1-c1ccc(NC)c([N+](=O)[O-])c1 experimentaltarget=Hs-578T valuetype=GI50 valuemeasured="23.6 µM (inactive)"

----------
Test system: SK-MEL-5
protocolText: NCI tumour cell line growth inhibition, 48 h
Active and inactive are the calls of the source. Cut-off read from the data, not from the text of the source: active = GI50 up to about 1.1 µM and inactive = higher.
Possible outcomes: 1 (active), 0 (inactive)

compound=Cc1cc2c(=O)cc(-c3ccc(Cl)cc3Cl)oc2c(C(=O)O)c1C experimentaltarget=SK-MEL-5 assignedclass=0
compound=CC(=O)c1cc2c(s1)C(=O)c1ccccc1C2=O experimentaltarget=SK-MEL-5 assignedclass=1
compound="c1ccc(C2=NOC3C4CCC(C4)C23)cc1 (stereo unspecified)" experimentaltarget=SK-MEL-5 assignedclass=0
compound=Cc1ccc2[nH]c3c(C)c4ccncc4c(C)c3c2c1 experimentaltarget=SK-MEL-5 assignedclass=0
compound="O=C1C(CN2CCCC2)CCC1CN1CCCC1 (stereo unspecified)" experimentaltarget=SK-MEL-5 assignedclass=0
compound="Nc1ncc(Cl)c(NCC2(CO)CC(CCc3ccccc3)C2)n1 (stereo unspecified)" experimentaltarget=SK-MEL-5 assignedclass=1
